Cited source: paper PMC9221509

Answer each item with its documented MIC against MRSA, Negative.
Test system: MRSA (NCTC 12493)
Type: cell-based, methicillin-resistant Staphylococcus aureus
condition parameters: NCTC 12493, 24 h
No end group written: not given here.
Answers are plain numbers, in µM.

See these solved cases before continuing.
FLPKIIGKLSSKLPKIF-NH2 [Temporin-PKE-4K]	32
FLPLIIGALSSKLPKIF-NH2 [Temporin-PKE-K12]	4
FLPLIIGKLSSLLPKIF-NH2 [Temporin-PKE-2K]	2
FLPKIIGKLSSLLPKIF-NH2 [Temporin-PKE-3K]	2

Ask: Input FLPLIIGALSSLLPKIF-NH2 [Temporin-PKE] , output reported MIC against MRSA, Negative.
Result: 2

* * *

Test system: MRSA (NCTC 12493)
Format: cell-based, methicillin-resistant Staphylococcus aureus
condition parameters: NCTC 12493, 24 h
No end group written: not given here.
Each record is given 1.0 if its reported MIC against MRSA in the presence of 10% FBS is strictly below 20 µM. Records at or above 20 µM are given 0.0.

FLPKIIGKLSSKLPKIF-NH2 [Temporin-PKE-4K]	0.0

Ask: Given FLPKIIGKLSSLLPKIF-NH2 [Temporin-PKE-3K] , is recorded MIC against MRSA in the presence of 10% FBS strictly lower than 20 µM?
Result: 1.0

Ask: Lab note: MIC against MRSA in the presence of 10% FBS threshold 20 µM. Does this substance come in strictly under it? FLPLIIGALSSKLPKIF-NH2 [Temporin-PKE-K12]
Result: 0.0

Ask: Say whether its MIC against MRSA in the presence of 10% FBS is strictly beneath 20 µM. Entry: FLPLIIGALSSLLPKIF-NH2 [Temporin-PKE]
Result: 1.0

Ask: State whether 20 µM exceeds MIC against MRSA in the presence of 10% FBS recorded for FLPLIIGKLSSLLPKIF-NH2 [Temporin-PKE-2K] .
Result: 1.0

* * *

System: NCI-H157 cells
Type: cell-based
condition parameters: 24 h
No end group written: not given here.
reported property: IC50 (µM)
One number for each entry, in µM.

FLPLIIGKLSSLLPKIF-NH2 [Temporin-PKE-2K]	2.78
FLPKIIGKLSSKLPKIF-NH2 [Temporin-PKE-4K]	27.8
FLPLIIGALSSLLPKIF-NH2 [Temporin-PKE]	17.4
FLPKIIGKLSSLLPKIF-NH2 [Temporin-PKE-3K]	3.29

Ask: Provide only the value of recorded IC50 for FLPLIIGALSSKLPKIF-NH2 [Temporin-PKE-K12]
Result: 24

* * *

Test system: K. pneumoniae (ATCC 43816)
experiment description: microbe, parasite or virus in culture
Type: cell-based, Klebsiella pneumoniae
condition parameters: ATCC 43816, 24 h; read-out: MIC
No end group written: not given here.
reported property: MIC (µM)
Numbers only, in µM.

FLPKIIGKLSSLLPKIF-NH2 [Temporin-PKE-3K]	4

Consider the following items and state reported MIC for each.
1. FLPLIIGKLSSLLPKIF-NH2 [Temporin-PKE-2K]
2. FLPLIIGALSSKLPKIF-NH2 [Temporin-PKE-K12]

Result:
[16, 32]

* * *

System: U251MG cells
Format: cell-based
condition parameters: 24 h
No end group written: not given here.
I'd be grateful if you could share measured IC50 for these entries.
Give bare numbers, in µM.

FLPLIIGKLSSLLPKIF-NH2 [Temporin-PKE-2K]	2.49

Take each entry in turn and give its IC50.
1. FLPKIIGKLSSLLPKIF-NH2 [Temporin-PKE-3K]
2. FLPLIIGALSSLLPKIF-NH2 [Temporin-PKE]
3. FLPKIIGKLSSKLPKIF-NH2 [Temporin-PKE-4K]
4. FLPLIIGALSSKLPKIF-NH2 [Temporin-PKE-K12]

Result:
2.83
23.2
85.5
25.8
